Listed here: items and their measured koff.
Molecular target: T1, mouse serum albumin (mouse, UniProt P07724 25-608)
T1 construct: also called MSA; MuSA
T1 sequence (P07724 25-608 limits assumed): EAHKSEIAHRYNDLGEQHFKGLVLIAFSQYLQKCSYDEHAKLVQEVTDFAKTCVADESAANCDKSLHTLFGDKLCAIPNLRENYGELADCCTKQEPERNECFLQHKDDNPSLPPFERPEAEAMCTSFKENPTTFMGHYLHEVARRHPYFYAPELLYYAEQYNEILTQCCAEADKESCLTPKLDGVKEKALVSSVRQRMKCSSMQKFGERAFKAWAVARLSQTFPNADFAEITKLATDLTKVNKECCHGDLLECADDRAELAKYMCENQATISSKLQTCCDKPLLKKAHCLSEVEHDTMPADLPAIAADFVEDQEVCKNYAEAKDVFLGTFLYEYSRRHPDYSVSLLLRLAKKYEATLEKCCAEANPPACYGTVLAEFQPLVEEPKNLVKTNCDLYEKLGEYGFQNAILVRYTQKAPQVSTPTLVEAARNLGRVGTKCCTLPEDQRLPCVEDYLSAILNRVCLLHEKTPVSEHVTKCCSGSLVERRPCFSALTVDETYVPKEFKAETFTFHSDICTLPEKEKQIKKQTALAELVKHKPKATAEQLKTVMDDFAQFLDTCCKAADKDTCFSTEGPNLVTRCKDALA
Assay: SPR, albumin immobilized, Adnectin 250 nM
# unit: s⁻¹ | format: bare number

Some binders with known koff results, for comparison:
5963_E01.PS5-2 (designed binder) MGVSDVPRDLEVVAATPTSLLISWDAPAVTVRYYRITYGREVQKYSDLGPLYIYQEFTVPGSKSTACISGLKPGVDYTITVYAVTGSGESPASSKPISINYRTPHHHHHH: 0.000507
5916_E03.PS5-2 (designed binder) MGVSDVPRDLEVVAATPTSLLISWDAPAVTVRYYRITYGREVQKYSDLGPLYIYQEFTVPGSKSTATISGLKPGVDYTITVYAVTGSGESPASSKPISINYRTPCHHHHHH: 0.000452
5963_F03.PS5-2 (designed binder) MGVSDVPRDLEVVAATPTSLLISWDAPCVTVRYYRITYGREVQKYSDLGPLYIYQEFTVPGSKSTATISGLKPGVDYTITVYAVTGSGESPASSKPISINYRTPHHHHHH: 0.000504

Request: Need koff of 5963_A02.PS5-2 (designed binder) MGCSTSGVSDVPRDLEVVAATPTSLLISWDAPAVTVRYYRITYGREVQKYSDLGPLYIYQEFTVPGSKSTATISGLKPGVDYTITVYAVTGSGESPASSKPISINYRTPHHHHHH , thanks.
Response: 0.000492

Request: Need koff of PKE2 Adnectin 2629_E06 (designed binder, 10Fn3 domain with modified CD loop; the entry includes the His6 tail; also called ADX_2629_E06) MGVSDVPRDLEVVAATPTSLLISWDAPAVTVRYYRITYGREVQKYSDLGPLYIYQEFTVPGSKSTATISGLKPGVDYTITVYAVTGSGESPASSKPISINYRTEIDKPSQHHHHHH , thanks.
Response: 0.000401

Request: Need koff of 5963_E02.PS5-2 (designed binder) MGVSDVPRDLEVVAATPTSLLISWDAPAVTVRYYRITYGREVQKYSDLGPLYIYQEFTVPGSKSCATISGLKPGVDYTITVYAVTGSGESPASSKPISINYRTPHHHHHH , thanks.
Response: 0.000461

Request: Need koff of 5916_A04.PS5-2 (designed binder) MGVSDVPRDLEVVAATPTSLLISWDAPAVTVRYYRITYGREVQKYSDLGPLYIYQEFTVPGSKSTATISGLKPGVDYTITVYAVTGSGESPASSKPISINYRTPEDEDGCHHHHHH , thanks.
Response: 0.000307

Request: Need koff of 5963_D01.PS5-2 (designed binder) MGVSDVPRDLEVVCATPTSLLISWDAPAVTVRYYRITYGREVQKYSDLGPLYIYQEFTVPGSKSTATISGLKPGVDYTITVYAVTGSGESPASSKPISINYRTPHHHHHH , thanks.
Response: 0.000499

Origin of measurements: patent US20200048328A1
